TEST_SYSTEM: HLA-A*02:01 (Homo sapiens, UniProt P04439, D140Y/D185E/D98H/E176V/E277Q/G131W/G231S/I119V/I121R/I166T/I218V/L300P/L318F/N151K/N90K/P208A/P217A/Q86G/Q94H/R138H/R169H/T345S)
EXPERIMENT_NOTES: MHC binding assay (UV-ligand exchange, ELISA of stabilized MHC complexes)
REPORTED_CONDITIONS: MHC class I binding score; binding to HLA-A*02:01 ranged by peptide exchange yield (UV-ligand exchange, ELISA)
PARAMETER: Peptide exchange

Example cases with answers are listed next.
                                  substance        value_observed
0  149 (NLLELFVQL; listed as Homo sapiens) [compound 149]    ″+++″ (≥50% = +++)
1  588 (SLLPLSHLV; listed as Homo sapiens) [compound 588]    ″+++″ (≥50% = +++)
2  76 (ILIDSIYKV; listed as Homo sapiens) [compound 76]    ″+++″ (≥50% = +++)
3  337 (HLLSELEAAPYL; listed as Homo sapiens) [compound 337]  ″++++″ (≥75% = ++++)
4  457 (SLLPGNLVEKV; listed as Homo sapiens) [compound 457]    ″+++″ (≥50% = +++)
5  461 (VMFRTPLASV; listed as Homo sapiens) [compound 461]      ″++″ (≥20% = ++)

(Q) Entry under review: 184 (YLMDINGKMWL; listed as Homo sapiens) [compound 184] . Reported Peptide exchange?
(A) ″+++″ (≥50% = +++)

(Q) How about 539 (ALFDAQAQV; listed as Homo sapiens) [compound 539] ?
(A) ″+++″ (≥50% = +++)

(Q) How about 256 (FLPPEHTIVYI; listed as Homo sapiens) [compound 256] ?
(A) ″+++″ (≥50% = +++)

----------
TEST_SYSTEM: HLA-A*02:01 (Homo sapiens, UniProt P04439, D140Y/D185E/D98H/E176V/E277Q/G131W/G231S/I119V/I121R/I166T/I218V/L300P/L318F/N151K/N90K/P208A/P217A/Q86G/Q94H/R138H/R169H/T345S)
EXPERIMENT_NOTES: MHC binding assay (UV-ligand exchange, ELISA of stabilized MHC complexes)
REPORTED_CONDITIONS: MHC class I binding score; binding to HLA-A*02:01 ranged by peptide exchange yield (UV-ligand exchange, ELISA)
Description: Candidate peptides for T cell based therapies according to the present invention were further tested for their MHC binding capacity (affinity). The individual peptide-MHC complexes were produced by UV-ligand exchange, where a UV-sensitive peptide is cleaved upon UV-irradiation, and exchanged with the peptide of interest as analyzed. Only peptide candidates that can effectively bind and stabilize the peptide-receptive MHC molecules prevent dissociation of the MHC complexes. […]
PARAMETER: Peptide exchange

Example cases with answers are listed next.
In [3]: df
Out[3]:
                                  substance        value_observed
0  119 (FLYIGDIVSL; listed as Homo sapiens) [compound 119]  ″++++″ (≥75% = ++++)
1  55 (SLLDLETLSL; listed as Homo sapiens) [compound 55]  ″++++″ (≥75% = ++++)
2  568 (TLYDIAHTPGV; listed as Homo sapiens) [compound 568]  ″++++″ (≥75% = ++++)
3  209 (KLIESKHEV; listed as Homo sapiens) [compound 209]      ″++″ (≥20% = ++)
4  206 (VLQEGKLQKLAQL; listed as Homo sapiens) [compound 206]    ″+++″ (≥50% = +++)

(Q) Entry under review: 91 (IMQDFPAEIFL; listed as Homo sapiens) [compound 91] . Reported Peptide exchange?
(A) ″++++″ (≥75% = ++++)

(Q) How about 585 (ALWDLAADKQTL; listed as Homo sapiens) [compound 585] ?
(A) ″++++″ (≥75% = ++++)

----------
TEST_SYSTEM: HLA-A*02:01 (Homo sapiens, UniProt P04439, D140Y/D185E/D98H/E176V/E277Q/G131W/G231S/I119V/I121R/I166T/I218V/L300P/L318F/N151K/N90K/P208A/P217A/Q86G/Q94H/R138H/R169H/T345S)
EXPERIMENT_NOTES: MHC binding assay (UV-ligand exchange, ELISA of stabilized MHC complexes)
REPORTED_CONDITIONS: MHC class I binding score; binding to HLA-A*02:01 ranged by peptide exchange yield (UV-ligand exchange, ELISA)
PARAMETER: Peptide exchange

Example cases with answers are listed next.
                                  substance         parameter      value_observed
0  276 (ALFTFSPLTV; listed as Homo sapiens) [compound 276]  Peptide exchange  ″+++″ (≥50% = +++)
1  542 (RVWDISTVSSV; listed as Homo sapiens) [compound 542]  Peptide exchange  ″+++″ (≥50% = +++)
2  274 (SLLFSLFEA; listed as Homo sapiens) [compound 274]  Peptide exchange    ″++″ (≥20% = ++)
3  570 (ALANQIPTV; listed as Homo sapiens) [compound 570]  Peptide exchange    ″++″ (≥20% = ++)
4  170 (RLQETLSAA; listed as Homo sapiens) [compound 170]  Peptide exchange  ″+++″ (≥50% = +++)

(Q) Entry under review: 427 (ALLPLSPYL; listed as Homo sapiens) [compound 427] . Reported Peptide exchange?
(A) ″+++″ (≥50% = +++)

(Q) How about 566 (VIADGGIQNV; listed as Homo sapiens) [compound 566] ?
(A) ″++″ (≥20% = ++)

(Q) How about 452 (ILLEHGADPNL; listed as Homo sapiens) [compound 452] ?
(A) ″+++″ (≥50% = +++)

----------
TEST_SYSTEM: HLA-A*02:01 (Homo sapiens, UniProt P04439, D140Y/D185E/D98H/E176V/E277Q/G131W/G231S/I119V/I121R/I166T/I218V/L300P/L318F/N151K/N90K/P208A/P217A/Q86G/Q94H/R138H/R169H/T345S)
EXPERIMENT_NOTES: MHC binding assay (UV-ligand exchange, ELISA of stabilized MHC complexes)
REPORTED_CONDITIONS: MHC class I binding score; binding to HLA-A*02:01 ranged by peptide exchange yield (UV-ligand exchange, ELISA)
Excerpt: Candidate peptides for T cell based therapies according to the present invention were further tested for their MHC binding capacity (affinity). The individual peptide-MHC complexes were produced by UV-ligand exchange, where a UV-sensitive peptide is cleaved upon UV-irradiation, and exchanged with the peptide of interest as analyzed. Only peptide candidates that can effectively bind and stabilize the peptide-receptive MHC molecules prevent dissociation of the MHC complexes. […]
PARAMETER: Peptide exchange

Example cases with answers are listed next.
>>> print(df.to_string())
                                  substance         parameter        value_observed
0  348 (ILLDVKTRL; listed as Homo sapiens) [compound 348]  Peptide exchange  ″++++″ (≥75% = ++++)
1  538 (LLLAHIIAL; listed as Homo sapiens) [compound 538]  Peptide exchange      ″++″ (≥20% = ++)
2  50 (SLSELEALM; listed as Homo sapiens) [compound 50]  Peptide exchange    ″+++″ (≥50% = +++)
3  373 (SLLEDKGLAEV; listed as Homo sapiens) [compound 373]  Peptide exchange      ″++″ (≥20% = ++)
4  195 (GLFADLLPRL; listed as Homo sapiens) [compound 195]  Peptide exchange    ″+++″ (≥50% = +++)

(Q) Entry under review: 48 (ALAELYEDEV; listed as Homo sapiens) [compound 48] . Reported Peptide exchange?
(A) ″+++″ (≥50% = +++)

(Q) How about 408 (VLDDSIYLV; listed as Homo sapiens) [compound 408] ?
(A) ″++″ (≥20% = ++)

(Q) How about 246 (LLWEVVSQL; listed as Homo sapiens) [compound 246] ?
(A) ″+++″ (≥50% = +++)

(Q) How about 447 (QLVPALAKV; listed as Homo sapiens) [compound 447] ?
(A) ″++″ (≥20% = ++)

----------
TEST_SYSTEM: HLA-A*02:01 (Homo sapiens, UniProt P04439, D140Y/D185E/D98H/E176V/E277Q/G131W/G231S/I119V/I121R/I166T/I218V/L300P/L318F/N151K/N90K/P208A/P217A/Q86G/Q94H/R138H/R169H/T345S)
EXPERIMENT_NOTES: MHC binding assay (UV-ligand exchange, ELISA of stabilized MHC complexes)
REPORTED_CONDITIONS: MHC class I binding score; binding to HLA-A*02:01 ranged by peptide exchange yield (UV-ligand exchange, ELISA)
PARAMETER: Peptide exchange

Example cases with answers are listed next.
In [3]: df
Out[3]:
                                  substance        value_observed
0  95 (SVIPQIQKV; listed as Homo sapiens) [compound 95]    ″+++″ (≥50% = +++)
1  51 (LLPDLEFYV; listed as Homo sapiens) [compound 51]  ″++++″ (≥75% = ++++)
2  586 (KLKPGDLVGV; listed as Homo sapiens) [compound 586]    ″+++″ (≥50% = +++)
3  188 (GLFPVTPEAV; listed as Homo sapiens) [compound 188]    ″+++″ (≥50% = +++)
4  244 (SLFGGTEITI; listed as Homo sapiens) [compound 244]    ″+++″ (≥50% = +++)
5  395 (ALALGGIAVV; listed as Homo sapiens) [compound 395]  ″++++″ (≥75% = ++++)
6  583 (ILANDGVLLAA; listed as Homo sapiens) [compound 583]    ″+++″ (≥50% = +++)

In the following, a different substance is considered.
(Q) Entry under review: 551 (KLYESLLPFA; listed as Homo sapiens) [compound 551] . Reported Peptide exchange?
(A) ″+++″ (≥50% = +++)
